recorded-metric: melting point

// worked examples, melting point included
- CCN(CC)CCc1c[nH]c2cc(NS(=O)(=O)c3c(Cl)nc4sccn34)ccc12: 210 to 212 °C
- CN(C)CCc1c[nH]c2cc(NS(=O)(=O)c3ccc(-c4ccccc4)cc3)ccc12: 164 to 168 °C
- CCN(CC)CCc1c[nH]c2cc(NS(=O)(=O)c3cc(Cl)c(Cl)s3)ccc12: 200 to 205 °C
- CN(C)CCc1c[nH]c2cc(NS(=O)(=O)c3ccc4ccccc4c3)ccc12: 150 to 151 °C

Below are 4 compounds. Give each one its melting point.
1. Cc1c(S(=O)(=O)Nc2cccc3c(CCN(C)C)c[nH]c23)sc2ccc(Cl)cc12
2. CN(C)CCc1c[nH]c2cc(N(S(=O)(=O)c3cc(Cl)c(Cl)s3)S(=O)(=O)c3cc(Cl)c(Cl)s3)ccc12
3. CCOC(CN(CC)CC)c1c[nH]c2c(N(S(=O)(=O)c3sc4ccc(Cl)cc4c3C)S(=O)(=O)c3sc4ccc(Cl)cc4c3C)cccc12 (centres unmarked)
4. Cc1c(S(=O)(=O)Nc2cccc3[nH]cc(CCN(C)C)c23)sc2ccc(Cl)cc12

["130 to 140 °C", "187 to 188 °C", "155 to 156 °C", "235 to 236 °C"]

---

assay-system: 5HT6-human recombinant receptor (Homo sapiens)
Sequence (P50406 whole entry): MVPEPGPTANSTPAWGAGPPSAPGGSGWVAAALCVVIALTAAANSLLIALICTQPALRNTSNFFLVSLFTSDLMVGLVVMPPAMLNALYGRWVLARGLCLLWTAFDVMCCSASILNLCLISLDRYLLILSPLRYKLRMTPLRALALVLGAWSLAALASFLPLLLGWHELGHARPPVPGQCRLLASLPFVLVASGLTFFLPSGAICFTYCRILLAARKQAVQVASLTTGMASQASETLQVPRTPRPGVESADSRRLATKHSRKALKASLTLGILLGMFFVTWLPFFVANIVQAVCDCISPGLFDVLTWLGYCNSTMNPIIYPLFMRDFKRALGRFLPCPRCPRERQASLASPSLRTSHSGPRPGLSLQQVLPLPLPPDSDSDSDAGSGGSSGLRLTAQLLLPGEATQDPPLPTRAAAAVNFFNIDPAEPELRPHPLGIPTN
protocol-description: Binding to serotonin receptor 5-HT6 ([H]-LSD radioligand, HEK-293 cell membranes)
applied-conditions: membranes of HEK-293 cells expressing 5HT6-human recombinant receptor; [H]-LSD 2.7 nM; 60 minutes at 37° C.
recorded-metric: Ki (nM)
One number for each entry, in nM.

// worked examples, Ki included
* CN(C)CCc1c[nH]c2cc(NS(=O)(=O)c3c(Cl)nc4sccn34)ccc12 | 7.3
* CCN(CC)CCc1c[nH]c2cc(NS(=O)(=O)c3c(Cl)nc4sccn34)ccc12 | 42.8
* CN(C)CCc1c[nH]c2cc(NS(=O)(=O)c3cccc4ccccc34)ccc12 | 31.1

Now, please, on to the next molecule.
Reported Ki for CN(C)CCc1c[nH]c2cc(NS(=O)(=O)c3ccc4ccccc4c3)ccc12 : what is it?
42.6

---

recorded-metric: melting point

// worked examples, melting point included
• CCN(CC)CCc1c[nH]c2cc(NS(=O)(=O)c3cccc4ccccc34)ccc12 = 183 to 187 °C
• CN(C)CCc1c[nH]c2cc(NS(=O)(=O)c3cccc4ccccc34)ccc12 = 167 to 168 °C
• CCOC(CN(C)C)c1c[nH]c2c(NS(=O)(=O)c3sc4ccc(Cl)cc4c3C)cccc12 (stereo not drawn) = 145 °C

Below are 3 molecules. Give each one its melting point.
1. CN(C)CCc1c[nH]c2cc(NS(=O)(=O)c3cc(Cl)c(Cl)s3)ccc12
2. CN(C)CCc1c[nH]c2cc(N(S(=O)(=O)c3cc(Cl)cc(Cl)c3)S(=O)(=O)c3cc(Cl)cc(Cl)c3)ccc12
3. CCN(CC)CCc1c[nH]c2c(NS(=O)(=O)c3sc4ccc(Cl)cc4c3C)cccc12

111 to 114 °C
103 to 107 °C
79 to 84 °C

Below are 2 molecules. Give each one its melting point.
1. CN(C)CCc1c[nH]c2cccc(NS(=O)(=O)c3cc(Cl)cc(Cl)c3)c12
2. CCN(CC)CCc1c[nH]c2cc(NS(=O)(=O)c3cccc4c(Cl)cccc34)ccc12

1: 212 to 215 °C; 2: 86 to 90 °C

Reported melting point for Cc1c(S(=O)(=O)N(c2cccc3c(CCN(C)C)c[nH]c23)S(=O)(=O)c2sc3ccc(Cl)cc3c2C)sc2ccc(Cl)cc12 : what is it?
110 to 120 °C

---

Structures can show the parent of a compound that is named as a salt.
Give melting point for every item shown.

// worked examples, melting point included
• CN(C)CCc1c[nH]c2cc(NS(=O)(=O)c3ccc(Oc4ccccc4)cc3)ccc12 = 170 to 171 °C
• CN(C)CCc1c[nH]c2cccc(NS(=O)(=O)CCc3cccc4ccccc34)c12 (as salt: TFA) = 170 to 172 °C
• CN(C)CCc1c[nH]c2cccc(NS(=O)(=O)c3c(Cl)nc4sccn34)c12 = 216 °C
• CN(C)CCc1c[nH]c2cc(NS(=O)(=O)c3c(Cl)nc4sccn34)ccc12 = 138 to 142 °C
• CCN(CC)CCc1c[nH]c2cc(NS(=O)(=O)c3ccc4ccccc4c3)ccc12 = 146 to 147 °C

Below are 4 compounds. Give each one its melting point.
1. CN(C)CCc1c[nH]c2cc(NS(=O)(=O)CCc3cccc4ccccc34)ccc12
2. CN(C)CCc1c[nH]c2cccc(NS(=O)(=O)c3ccc4ccccc4c3)c12
3. CCN(CC)CCc1c[nH]c2c(N(S(=O)(=O)c3sc4ccc(Cl)cc4c3C)S(=O)(=O)c3sc4ccc(Cl)cc4c3C)cccc12
4. CCN(CC)CCc1c[nH]c2cc(NS(=O)(=O)c3ccc(-c4ccccc4)cc3)ccc12

90 °C
165 to 168 °C
87 to 90 °C
81 to 85 °C

---

recorded-metric: melting point

Below are 5 molecules. Give each one its melting point.
1. CN(C)CCc1c[nH]c2cc(N(S(=O)(=O)c3c(Cl)nc4sccn34)S(=O)(=O)c3c(Cl)nc4sccn34)ccc12
2. CN(C)CCc1c[nH]c2cccc(NS(=O)(=O)c3ccc(Oc4ccccc4)cc3)c12
3. CN(C)CCc1c[nH]c2cccc(NS(=O)(=O)c3ccc(-c4ccccc4)cc3)c12
4. CN(C)CCc1c[nH]c2cc(NS(=O)(=O)c3cccc4c(Cl)cccc34)ccc12
5. CCOC(CN(C)C)c1c[nH]c2cc(N(S(=O)(=O)c3sc4ccc(Cl)cc4c3C)S(=O)(=O)c3sc4ccc(Cl)cc4c3C)ccc12 (stereo not shown)

1. 210 °C
2. 78 to 82 °C
3. 182 to 184 °C
4. 187 to 190 °C
5. 208 °C

---

Give melting point for every item shown.

// worked examples, melting point included
* CN(C)CCc1c[nH]c2cccc(NS(=O)(=O)c3cccc4ccccc34)c12 | 223 to 225 °C
* CN(C)CCc1c[nH]c2cccc(NS(=O)(=O)c3ccc4c(Cl)cccc4c3)c12 | 198 to 200 °C
* CCN(CC)CCc1c[nH]c2cc(NS(=O)(=O)c3ccc(Oc4ccccc4)cc3)ccc12 | 50 to 53 °C
* CN(C)CCc1c[nH]c2cc(NS(=O)(=O)c3cc(Cl)cc(Cl)c3)ccc12 | 96 to 98 °C

Now, please, on to the next molecule.
Reported melting point for CCN(CC)CCc1c[nH]c2cc(NS(=O)(=O)c3cc(Cl)cc(Cl)c3)ccc12 : what is it?
79 to 85 °C
